Target: HA of A/New Jersey/8/76 (H1N1) (influenza A virus)
Experiment: cell-based or functional assay
parameter: Neutralization IC50, H1-NJ76 (µg/mL)
Lab book: enter the figure in µg/mL, no units written.

Look up Neutralization IC50, H1-NJ76: Antibody 11 (antibody, V domains shown) VH: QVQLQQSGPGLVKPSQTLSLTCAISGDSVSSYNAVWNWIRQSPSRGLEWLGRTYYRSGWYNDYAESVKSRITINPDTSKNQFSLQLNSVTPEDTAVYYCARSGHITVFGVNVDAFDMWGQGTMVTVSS VL: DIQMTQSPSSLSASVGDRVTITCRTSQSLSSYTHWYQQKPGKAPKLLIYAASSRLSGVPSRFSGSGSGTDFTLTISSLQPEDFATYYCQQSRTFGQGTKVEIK
0.13

Look up Neutralization IC50, H1-NJ76: Antibody 12 (antibody, V domains shown) VH: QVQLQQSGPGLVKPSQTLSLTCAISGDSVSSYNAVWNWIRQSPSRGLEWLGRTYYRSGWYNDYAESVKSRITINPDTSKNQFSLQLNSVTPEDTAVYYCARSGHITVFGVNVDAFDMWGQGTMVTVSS VL: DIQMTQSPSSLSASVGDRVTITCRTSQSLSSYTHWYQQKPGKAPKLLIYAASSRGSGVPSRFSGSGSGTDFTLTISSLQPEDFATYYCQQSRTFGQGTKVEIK
0.12

Look up Neutralization IC50, H1-NJ76: Antibody 15 (antibody, V domains shown) VH: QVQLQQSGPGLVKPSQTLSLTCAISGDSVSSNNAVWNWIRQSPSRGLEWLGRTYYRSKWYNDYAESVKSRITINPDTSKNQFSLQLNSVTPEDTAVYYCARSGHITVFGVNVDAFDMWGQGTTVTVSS VL: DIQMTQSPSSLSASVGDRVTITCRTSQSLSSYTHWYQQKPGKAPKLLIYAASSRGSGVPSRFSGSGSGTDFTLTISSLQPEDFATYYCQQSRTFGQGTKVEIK
0.25

Look up Neutralization IC50, H1-NJ76: Antibody 13 (antibody, V domains shown) VH: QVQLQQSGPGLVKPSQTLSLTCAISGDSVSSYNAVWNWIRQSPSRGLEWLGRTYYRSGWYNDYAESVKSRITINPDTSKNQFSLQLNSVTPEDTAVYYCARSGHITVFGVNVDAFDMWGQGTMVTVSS VL: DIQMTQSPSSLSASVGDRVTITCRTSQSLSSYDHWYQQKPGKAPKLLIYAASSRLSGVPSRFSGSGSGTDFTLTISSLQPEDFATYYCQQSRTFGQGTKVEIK
0.12

Look up Neutralization IC50, H1-NJ76: Antibody 14 (antibody, V domains shown) VH: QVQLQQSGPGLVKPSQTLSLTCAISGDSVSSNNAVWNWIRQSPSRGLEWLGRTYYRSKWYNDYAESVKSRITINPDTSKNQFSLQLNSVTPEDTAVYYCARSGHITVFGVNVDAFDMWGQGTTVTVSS VL: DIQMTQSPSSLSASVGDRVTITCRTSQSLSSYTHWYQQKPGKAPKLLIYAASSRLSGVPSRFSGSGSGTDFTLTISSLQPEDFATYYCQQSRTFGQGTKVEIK
0.11

Look up Neutralization IC50, H1-NJ76: Antibody 3 (antibody, V domains shown) VH: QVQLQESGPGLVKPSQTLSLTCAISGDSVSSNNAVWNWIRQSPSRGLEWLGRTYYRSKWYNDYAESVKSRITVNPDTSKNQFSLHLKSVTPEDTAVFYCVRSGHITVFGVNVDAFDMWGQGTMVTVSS VL: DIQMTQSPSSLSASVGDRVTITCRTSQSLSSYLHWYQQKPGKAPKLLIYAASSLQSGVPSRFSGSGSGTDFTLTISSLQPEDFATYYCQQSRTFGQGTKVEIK
0.57

Just for reference, patent US20160257732A1 is where these values come from.
